Test system: HL-60(TB) leukemia
Assay: NCI tumour cell line growth inhibition, 48 h
Exercise: for every item that follows, state its recorded TGI.

input: Determine from records and report TGI for Cc1ccc(C2=Nn3c(nc4sc(C)c(C)c4c3=O)SC2)cc1
output: > 100 µM

input: Please supply the value of reported TGI for the item COC(=O)C1CC23CCCN4CCC5(c6ccccc6N(C=O)C15CC2)C43 (stereo not given)
output: > 100 µM

input: Tell us which TGI value is on record for COc1cc(C2=C(c3cc(OC)c4ccccc4c3OC)C(=O)c3ccccc3C2=O)c(OC)c2ccccc12
output: > 100 µM

input: Return the recorded TGI value; entry: O=C(O)CN(CC(=O)O)Cc1cc(C#Cc2ccc(C#Cc3ccccc3)cc2)cc(CN(CC(=O)O)CC(=O)O)n1
output: > 56.7 µM

input: Read off the recorded TGI for Cc1cccc(/C=C/c2c(C(=O)/C=C/c3ccccc3)c(C)nc3ccccc23)c1
output: 4.34 µM

input: Answer with the recorded TGI for the molecule listed here: CCN(CC)CCNc1ccc2nnn3c4ccc(C)cc4c(=O)c1c23
output: 16.8 µM

input: For the molecule CC(=O)NC1C(OC[C@@H](CC(=O)N[C@@H](CC(=O)O)CC(=O)N[C@H](CC(=O)N[C@@H](CCCN)CC(=O)N[C@@H](CCCN)CC(=O)N[C@H](CC(N)=O)C(C)C)C(C)C)NC(=O)C[C@@H](N)C(C)C)OC(CO)C(O)C1O (stereo not given in full) , give its reported TGI.
output: > 100 µM

input: Return TGI for the following molecule: O=C1NC2=C(CCCC/C2=N\O)C12CCCCC2
output: > 100 µM

input: Annotate the molecule C=CCOc1cc(NC(=S)c2ccoc2C)ccc1OC with its measured TGI.
output: > 100 µM

input: Tell us which TGI value is on record for COc1ccc(/C=C2\CCC(CNc3ccc(S(N)(=O)=O)cc3)C2=O)cc1 (stereo not given)
output: 7.73 µM
